- Measured on: T1, biotinylated recombinant human FAP (human, UniProt Q12884 26-760, biotinylated)
- T1 construct: also called biotinylated human FAP
- Experiment summary: SPR (Biacore)
Answer each item with its documented kon.

binder="P1AE1693_Fab, humanized anti-FAP clone 212 variant VH1G2a/VL1G2a (Fab, V domains shown, Fab) VH: QVQLVQSGAEVKKPGASVKVSCKASGYTLTDYNMDWVRQAPGKSLEWIGDIYPNTGGTIYNQKFKGRVTMTIDKSTSTVYMELSSLRSEDTAVYYCTRFRGIHYAMDYWGQGTTVTVSS VL: EIVLTQSPATLSLSPGERATLSCRASESVDNYGLSFINWFQQKPGQPPRLLIYGTSNRGSGIPARFSGSGSGTDFTLTISSLEPEDFAVYFCQQSNEVPYTFGGGTKVEIK" assay_metric=kon meas_value="530000 M⁻¹ s⁻¹"

Fill in kon for each of the 2 binders listed.
1. P1AE1702_Fab, humanized anti-FAP clone 212 variant with VL2G2a (Fab, V domains shown, Fab) VH: EVQLLESGGGLVQPGGSLRLSCAASGYTLTDYNMDWVRQAPGKGLEWVGDIYPNTGGTIYNQKFKGRFTISIDKSKNTAYLQMNSLRAEDTAVYYCTRFRGIHYAMDYWGQGTTVTVSS VL: DIQMTQSPSSLSASVGDRVTITCRASESVDNYGLSFINWFQQKPGQPPKLLIYGTSNRGSGVPSRFSGSGSGTDFTLTISSLQPEDFAMYFCQQSNEVPYTFGGGTKVEIK
2. P1AE1690_Fab, humanized anti-FAP clone 212 variant VH1G2a/VL1G1a (Fab, V domains shown, Fab) VH: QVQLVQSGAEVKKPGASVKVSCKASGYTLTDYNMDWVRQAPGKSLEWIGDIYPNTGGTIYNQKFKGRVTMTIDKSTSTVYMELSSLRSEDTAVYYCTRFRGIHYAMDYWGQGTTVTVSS VL: EIVLTQSPATLSLSPGERATLSCRASESVDNYGLSFINWFQQKPGQAPRLLIYGTSNRGSGIPARFSGSGSGTDFTLTISSLEPEDFAVYFCQQSNEVPYTFGGGTKVEIK

A.
502000 M⁻¹ s⁻¹
551000 M⁻¹ s⁻¹
